// provenance: the supplement of paper PMC11451515

List of cell viability values.
system: P12-Ichikawa; assay: cell viability relative to DMSO control; higher = less cytotoxic; details: HPLM + 10% dialyzed FBS; 48 h; 5.12 µM
# output: bare number, implied unit %

Examples with their reported cell viability follow.
compound	property measured	scale unit	result
CC1(C)C(N(O)C(=O)Nc2ccc(Cl)cc2)N(c2ccc(Cl)cc2)C(=O)N1CC(=O)N/N=C/C=C/c1ccc([N+](=O)[O-])o1 (centres undefined)	cell viability	%	99.4
O=C1NC(=O)/C(=C/c2ccc(-c3ccc(F)cc3O)o2)S1	cell viability	%	97.7
C[S+](=O)([O-])c1ccc(Oc2cc(F)cc(C#N)c2)c2c1[C@H](O)C(F)(F)C2	cell viability	%	110
C[C@](N)(Cc1ccc(O)c(O)c1)C(=O)O	cell viability	%	87.8

Asked: // lookup cell viability for COC1=CC=C2/C3=N/CCN3\C(=N/C2=C1OC)NC(=O)C4=CC=CN=C4
Given back: 108

Asked: Returns the measured cell viability for the input compound. Input: O=C(O)CC/C=C\CC[C@@H]1[C@@H](N2CCCCC2)[C@@H](O)C[C@@H]1OCc1ccc(-c2ccccc2)cc1
Given back: 107

Asked: Look up cell viability for this compound: CCN1CCN(C(=O)Cc2ccc(Nc3ncc(F)c(Nc4ccc(C(=O)Nc5ccccc5Cl)cc4)n3)cc2)CC1
Given back: 60.1

Asked: I would be grateful if you could share the reported cell viability for COc1cc(CNC(=O)CCCC/C=C/C(C)C)ccc1O .
Given back: 11

Asked: Which value of cell viability has been reported for CN(C)C(=O)C(CCN1CCC(O)(c2ccc(Cl)cc2)CC1)(c1ccccc1)c1ccccc1 in the records?
Given back: 127
